Origin of measurements: PubChem BioAssay (NCI)

Catalogue of TGI values
tested on: OVCAR-8 ovarian; assay: NCI tumour cell line growth inhibition, 48 h

compound=CC[C@H](Nc1ncnc2nc[nH]c12)c1nc2cccc(F)c2c(=O)n1-c1ccccc1 target_entity="OVCAR-8 ovarian" assay_value="> 100 µM"
compound=O=C1c2ccccc2C(=O)c2cc(N=Nc3c(O)ccc4ccccc34)ccc21 target_entity="OVCAR-8 ovarian" assay_value="> 100 µM"
compound=COC(=O)c1ccc(/C=C2\Oc3ccccc3C2=O)cc1 target_entity="OVCAR-8 ovarian" assay_value="> 100 µM"
compound=O=S(=O)(NCCNc1nccc(-c2c(-c3ccc(F)c(O)c3)nc3sccn23)n1)c1ccc(F)cc1 target_entity="OVCAR-8 ovarian" assay_value="48 µM"
compound=Cc1ccc(NC(=O)CCc2nc(N)nc(N)c2-c2ccccc2)cc1C target_entity="OVCAR-8 ovarian" assay_value="> 100 µM"

Problem: Identify measured TGI associated with CCCCCCCCCCCCCCCCNC(=O)C(=O)/C=C(\O)c1ccc(C)cc1
Solution: > 10 µM

Problem: Tell me TGI reported for COC(=O)C1Cc2cc3c(cc2C1=O)CCCC3 (stereo not given)
Solution: > 100 µM

Problem: Give TGI for CC1=CC(=O)CC2(C)CC[C@@H]3C[C@]12OC3(C)C (stereo not given in full)
Solution: > 100 µM

Problem: Fill in reported TGI for this entry: Cc1ncc(C(=O)Nc2ccc(CN3CCN(C)CC3)c(C(F)(F)F)c2)cc1C#Cc1cnc2cccnn12
Solution: 5.98 µM

Problem: Tell us which TGI value is on record for CCOC(=O)c1[nH]c(Br)c(-c2ccc(OC)c(OC)c2)c1Br
Solution: 36.8 µM
